- target entity: human NOD2 (Homo sapiens, UniProt Q9HC29)
- Construct: host or cells: HEK-Blue NOD2 cells (derived from HEK293)
- Sequence (Q9HC29 whole entry): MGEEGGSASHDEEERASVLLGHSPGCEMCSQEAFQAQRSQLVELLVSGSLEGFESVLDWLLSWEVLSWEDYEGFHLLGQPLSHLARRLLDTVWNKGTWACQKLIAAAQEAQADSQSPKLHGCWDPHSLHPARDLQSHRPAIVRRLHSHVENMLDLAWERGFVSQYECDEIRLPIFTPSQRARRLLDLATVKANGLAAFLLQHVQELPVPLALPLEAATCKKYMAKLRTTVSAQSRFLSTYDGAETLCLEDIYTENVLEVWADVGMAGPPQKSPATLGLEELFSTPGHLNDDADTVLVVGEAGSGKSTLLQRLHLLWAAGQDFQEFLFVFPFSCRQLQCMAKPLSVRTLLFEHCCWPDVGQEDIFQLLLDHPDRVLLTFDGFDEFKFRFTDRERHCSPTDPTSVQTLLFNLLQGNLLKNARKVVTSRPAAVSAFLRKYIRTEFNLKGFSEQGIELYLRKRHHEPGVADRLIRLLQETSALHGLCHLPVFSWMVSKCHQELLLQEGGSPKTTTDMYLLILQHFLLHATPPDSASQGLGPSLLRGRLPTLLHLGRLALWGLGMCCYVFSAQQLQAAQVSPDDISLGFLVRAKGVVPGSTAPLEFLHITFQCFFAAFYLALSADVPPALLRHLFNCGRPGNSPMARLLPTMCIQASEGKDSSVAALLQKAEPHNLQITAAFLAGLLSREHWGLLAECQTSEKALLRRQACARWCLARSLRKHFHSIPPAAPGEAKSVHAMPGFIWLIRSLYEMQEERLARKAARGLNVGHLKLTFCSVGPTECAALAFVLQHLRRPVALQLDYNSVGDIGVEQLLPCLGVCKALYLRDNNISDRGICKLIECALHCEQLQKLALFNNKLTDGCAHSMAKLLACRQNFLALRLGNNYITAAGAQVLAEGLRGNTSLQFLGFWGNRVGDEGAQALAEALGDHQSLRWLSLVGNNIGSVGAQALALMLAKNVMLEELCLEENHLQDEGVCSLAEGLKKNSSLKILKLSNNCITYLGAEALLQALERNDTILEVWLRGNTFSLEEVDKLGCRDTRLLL
- test: HEK-Blue NOD2 NF-κB SEAP reporter assay (NOD2 agonistic activity)
- Format: cell-based
- conditions: HEK-Blue NOD2 cells, 18 h; means ± SEMs of at least three independent experiments, 8 or 16 concentrations (0.1 nM to 20 μM)
Please go through the items and note down their pEC50.
// pEC50: -log10(molar conc.)

For `CCOC(=O)CC[C@@H](NC(=O)[C@@H](NC(=O)CNC(=O)c1nc(-c2ccccc2)oc1C)C(C)C)C(=O)OCC` , what is its reported pEC50?
5.58

Returns the measured pEC50 for the input compound. Input: `CCOC(=O)CC[C@@H](NC(=O)[C@@H](NC(=O)CNC(=O)/C=C/c1ccc(OC(=O)CC23CC4CC(CC(C4)C2)C3)c(OC)c1)C(C)C)C(=O)OCC`
8.35

Where do these numbers come from? They come from paper PMC9377006.
